- TESTED_TARGET: Human adrenergic α1B receptor (Homo sapiens)
- Sequence (P35368 whole entry): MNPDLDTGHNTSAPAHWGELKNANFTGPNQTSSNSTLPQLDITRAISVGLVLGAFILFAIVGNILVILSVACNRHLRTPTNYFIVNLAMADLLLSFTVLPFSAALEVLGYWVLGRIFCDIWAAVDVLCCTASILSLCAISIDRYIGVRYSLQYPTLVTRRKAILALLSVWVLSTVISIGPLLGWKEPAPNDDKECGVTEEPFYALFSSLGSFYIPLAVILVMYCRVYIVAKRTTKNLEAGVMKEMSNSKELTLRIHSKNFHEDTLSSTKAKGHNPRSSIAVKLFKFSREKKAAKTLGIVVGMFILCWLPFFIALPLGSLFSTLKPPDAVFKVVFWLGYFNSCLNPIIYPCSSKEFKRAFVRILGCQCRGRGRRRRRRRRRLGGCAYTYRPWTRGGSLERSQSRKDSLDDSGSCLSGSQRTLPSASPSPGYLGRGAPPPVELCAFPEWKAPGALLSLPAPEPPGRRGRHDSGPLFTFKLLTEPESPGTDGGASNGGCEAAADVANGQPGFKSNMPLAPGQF
- METHOD: Radioligand binding, adrenergic α1B (Protocol Group B)
- Parameters: purchased Milipore (Millipore)
- MEASUREMENT_SETUP: 0.1 μM compound; Protocol Group B; read-out: Percentage inhibition of ligand binding, Adrenergic α1B (0.1 μM)
# reported inhibition at 0.1 µM; entries follow
Just the number in %, nothing appended.

Please look up its inhibition at 0.1 µM: Cc1ccc2c(c1)c1c(n2CC(O)c2cc[n+]([O-])cc2)CCN2CCCC12 (centres unmarked)
11

Please look up its inhibition at 0.1 µM: Cc1ccc2c(c1)c1c(n2CC(O)c2ccncc2)CCN2CCCC12 (single isomer, unassigned) [Compound No. 178d]
94

Please look up its inhibition at 0.1 µM: Cc1cc(C)c2c(c1)c1c(n2CC(O)C2CCCCC2)CCN2CCCC12 (centres unmarked) [141a]
55

Please look up its inhibition at 0.1 µM: Cc1ccc2c(c1)c1c(n2CC(OCC2CCC2)c2ccncc2)CCN(C)C1 (centres unmarked) [59b]
28

Please look up its inhibition at 0.1 µM: Cc1ccc2c(c1)c1c(n2CC(C)(O)c2cccnc2)CC(CO)N(C)C1 (single isomer, unassigned) [15a]
17

Please look up its inhibition at 0.1 µM: Cc1ccc2c(c1)c1c(n2CC(C)(O)c2cnc3ccccc3c2)CCN(C)C1 (single isomer, unassigned) [32a]
-1

Please look up its inhibition at 0.1 µM: CC(O)(Cn1c2c(c3cc(C(F)(F)F)ccc31)CN1CCCC1C2)c1cccnc1 (centres unmarked) [85b]
-12

Please look up its inhibition at 0.1 µM: Cc1ccc2c(c1)c1c(n2CC(O)c2ccc(C(=O)N3CCCC3)nc2)CCN(C)C1 (centres unmarked)
-1

Please look up its inhibition at 0.1 µM: Cc1ccc2c(c1)c1c(n2CC(C)(O)c2cnccc2F)CCN(C)C1 (centres unmarked)
-6

Please look up its inhibition at 0.1 µM: CN1CCc2c(c3c(Cl)ccc(Cl)c3n2CC(O)c2cccnc2)C1 (centres unmarked)
10

Please look up its inhibition at 0.1 µM: Cc1ccc2c(c1)c1c(n2CC(C)(O)c2ccc(C(=O)N(C)CC3CC3)nc2)CCN(C)C1 (centres unmarked)
-12

Please look up its inhibition at 0.1 µM: OC(Cn1c2c(c3cc(F)ccc31)C1CCCN1CC2)c1ccncc1 (single isomer, unassigned) [18b]
45

Please look up its inhibition at 0.1 µM: Cc1ccc2c(c1)c1c(n2CC(O)c2cccnc2)C(F)(F)CN(C)C1 (centres unmarked)
0

Please look up its inhibition at 0.1 µM: Cc1ccc2c(c1)c1c(n2CC(C)(O)c2cccnc2)CC2CCC1N2C (single isomer, unassigned) [101a]
6

Please look up its inhibition at 0.1 µM: Cc1cc(Cl)c2c(c1)c1c(n2CC(C)(O)c2ccncc2)CCN2CCCC12 (single isomer, unassigned) [91a]
59

Please look up its inhibition at 0.1 µM: Cc1cc(F)cc2c3c(n(CC(C)(O)c4cccnc4)c12)CCN1CCCC31 (centres unmarked) [75b]
-1

Please look up its inhibition at 0.1 µM: CC(O)(Cn1c2c(c3cc(C(F)(F)F)ccc31)CN1CCCC1C2)c1cccnc1 (single isomer, unassigned) [85a]
-9

Please look up its inhibition at 0.1 µM: Cc1ccc2c(c1)c1c(n2CC(C)(O)c2ccc(F)cc2)CC2CCC1N2C (single isomer, unassigned) [102b]
5

Every entry's value here was drawn from patent US20150315188A1.
